# System: Staphylococcus aureus
# Type: functional
# Experimental Setup: ATCC 25923, 24 h
Quick rule for you: MIC under 20 µg/mL gets condition met, anything else gets condition not met.

{"columns": ["Molecule", "Category Label"],
 "data": [
  ["CCCCCCCCCCOc1c(OC)cc(/C=N/n2cnnc2)c2c1CN1CCc3cc4c(cc3C1C2)OCO4 (stereo not drawn)", "condition not met"],
  ["COc1cc(/C=N/n2cnnc2)c2c(c1OCc1cccc(F)c1)CN1CCc3cc4c(cc3C1C2)OCO4 (stereo not drawn)", "condition not met"],
  ["COc1cc(/C=N/n2cnnc2)c2c(c1OCc1ccc(F)cc1)CN1CCc3cc4c(cc3C1C2)OCO4 (stereo not drawn)", "condition not met"],
  ["CCCCCCCCCCCCOc1c(OC)cc(/C=N/n2cnnc2)c2c1CN1CCc3cc4c(cc3C1C2)OCO4 (stereo not drawn)", "condition not met"],
  ["COc1ccc2cc3[n+](cc2c1OC)CCc1cc2c(cc1-3)OCO2 [BERBERINE]", "condition not met"],
  ["COc1cc(/C=N/n2cnnc2)c2c(c1OCc1ccc(Cl)cc1)CN1CCc3cc4c(cc3C1C2)OCO4 (stereo not drawn)", "condition met"],
  ["CCCCCCOc1c(OC)cc(/C=N/n2cnnc2)c2c1CN1CCc3cc4c(cc3C1C2)OCO4 (stereo not drawn)", "condition met"],
  ["COc1cc(/C=N/n2cnnc2)c2c(c1OCc1ccc([N+](=O)[O-])cc1)CN1CCc3cc4c(cc3C1C2)OCO4 (stereo not drawn)", "condition not met"],
  ["COc1cc(/C=N/n2cnnc2)c2c(c1O)CN1CCc3cc4c(cc3C1C2)OCO4 (stereo not drawn)", "condition not met"],
  ["CCn1cc(C(=O)O)c(=O)c2cc(F)c(N3CCNCC3)cc21 [NORFLOXACIN]", "condition met"],
  ["CCOc1c(OC)cc(/C=N/n2cnnc2)c2c1CN1CCc3cc4c(cc3C1C2)OCO4 (stereo not drawn)", "condition not met"],
  ["COc1cc(/C=N/n2cnnc2)c2c(c1OCc1cccc(Cl)c1)CN1CCc3cc4c(cc3C1C2)OCO4 (stereo not drawn)", "condition not met"],
  ["COc1cc(/C=N/n2cnnc2)c2c(c1OCc1ccc(Cl)cc1Cl)CN1CCc3cc4c(cc3C1C2)OCO4 (stereo not drawn)", "condition met"],
  ["COc1cc(/C=N/n2cnnc2)c2c(c1OCc1ccccc1)CN1CCc3cc4c(cc3C1C2)OCO4 (stereo not drawn)", "condition met"],
  ["CCCCCCCCOc1c(OC)cc(/C=N/n2cnnc2)c2c1CN1CCc3cc4c(cc3C1C2)OCO4 (stereo not drawn)", "condition met"],
  ["CCCCOc1c(OC)cc(/C=N/n2cnnc2)c2c1CN1CCc3cc4c(cc3C1C2)OCO4 (stereo not drawn)", "condition met"],
  ["COc1cc(C=O)c2c(c1O)CN1CCc3cc4c(cc3C1C2)OCO4 (stereo not drawn)", "condition not met"],
  ["COc1cc(/C=N/n2cnnc2)c2c(c1OCc1ccccc1Cl)CN1CCc3cc4c(cc3C1C2)OCO4 (stereo not drawn)", "condition met"]
]}
